Cited source: ChEMBL document CHEMBL1961873

Tested on: Tyrosine-protein kinase ABL1 (Homo sapiens), P00519 [M351T]
Settings: at 0.1 µM
experimental_readout: inhibition
Express your answer as a number followed by its unit.

A selection of reference data follows.
CN(C)CCCn1c(-c2nonc2N)nc2cnccc21 = 1.53%
N#Cc1c(NC(=O)c2ccccc2F)sc2c1CCCC2 = 0.7%
NS(=O)(=O)c1cccc(-c2cc3ccncc3cc2OCc2ccccc2)c1 = 3.86%
CC(C)c1ccc2c(c1)NC(=O)/C2=N/Nc1ccc(S(N)(=O)=O)cc1 = 7.06%
O=C1Nc2ccccc2/C1=C/Nc1ccc2[nH]c(=O)[nH]c2c1 = 4.2%
COc1cccc(-n2ncc3c(N/N=C/c4ccc(C)cc4)ncnc32)c1 = 25.4%

We next turn to a different compound, shown below.
inhibition lookup needed for `CC(C)c1ccc(Nc2nccc(-c3cnn4ncccc34)n2)cc1` , thanks. 1.81%
